Measured values drawn from patent US20260116991A1 for this set.

Some binders, each annotated with its measured OD450 nm.
Assay target: T1, human GPC3-His protein (human, UniProt P51654 25-559)
T1 construct: Bought protein; also called human GPC3 protein; not shown: His tag
Protocol text: ELISA, coated human GPC3, antibody 0.0001 nM
Quick note: give the figure in OD450, leave out the unit.

// below: answered binders
F4.21.16 human-murine chimeric antibody (antibody, human IgG1, kappa, V domains shown) VH: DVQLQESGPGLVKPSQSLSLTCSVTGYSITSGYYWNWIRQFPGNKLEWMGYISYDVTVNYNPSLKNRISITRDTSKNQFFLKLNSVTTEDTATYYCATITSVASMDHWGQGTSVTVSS VL: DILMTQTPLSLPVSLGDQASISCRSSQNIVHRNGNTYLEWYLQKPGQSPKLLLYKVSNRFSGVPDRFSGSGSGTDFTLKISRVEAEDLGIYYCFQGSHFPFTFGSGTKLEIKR; 0.1
F1.21.8 human-murine chimeric antibody (antibody, human IgG1, kappa, V domains shown) VH: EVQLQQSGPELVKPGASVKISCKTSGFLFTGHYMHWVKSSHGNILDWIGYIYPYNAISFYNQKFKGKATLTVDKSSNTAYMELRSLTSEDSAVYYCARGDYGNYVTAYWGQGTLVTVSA VL: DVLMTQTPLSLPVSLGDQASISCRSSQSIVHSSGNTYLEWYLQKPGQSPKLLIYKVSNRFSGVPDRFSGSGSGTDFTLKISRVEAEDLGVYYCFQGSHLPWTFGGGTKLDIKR; 0.08
F1.136.7 human-murine chimeric antibody (antibody, human IgG1, kappa, V domains shown) VH: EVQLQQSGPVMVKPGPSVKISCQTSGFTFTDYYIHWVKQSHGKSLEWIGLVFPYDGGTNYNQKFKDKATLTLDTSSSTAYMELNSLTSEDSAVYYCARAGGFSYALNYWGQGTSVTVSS VL: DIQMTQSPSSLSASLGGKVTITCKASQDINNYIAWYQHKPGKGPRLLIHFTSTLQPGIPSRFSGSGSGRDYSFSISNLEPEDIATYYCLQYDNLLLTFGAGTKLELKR; 0.11

What value of measured OD450 nm is listed for F4.13.7 human-murine chimeric antibody (antibody, human IgG1, kappa, V domains shown) VH: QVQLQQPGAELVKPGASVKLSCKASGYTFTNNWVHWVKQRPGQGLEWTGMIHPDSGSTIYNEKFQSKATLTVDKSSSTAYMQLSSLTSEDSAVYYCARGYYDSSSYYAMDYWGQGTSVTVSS VL: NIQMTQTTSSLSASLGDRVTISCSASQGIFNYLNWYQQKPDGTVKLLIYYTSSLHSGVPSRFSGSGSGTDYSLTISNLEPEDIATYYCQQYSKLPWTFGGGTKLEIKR ? 0.1

Quick one: F1.62.9 human-murine chimeric antibody (antibody, human IgG1, kappa, V domains shown) VH: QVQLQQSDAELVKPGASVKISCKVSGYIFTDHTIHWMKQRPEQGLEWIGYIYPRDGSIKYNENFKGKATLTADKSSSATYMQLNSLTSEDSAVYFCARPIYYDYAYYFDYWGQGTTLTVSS VL: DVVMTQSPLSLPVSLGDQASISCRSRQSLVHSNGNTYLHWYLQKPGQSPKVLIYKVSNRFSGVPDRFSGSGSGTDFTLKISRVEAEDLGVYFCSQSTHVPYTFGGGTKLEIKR 0.11
